Experiment: Acute toxicity (LD50) in mice after intravenous injection into the tail vein, survival after 7 days
Settings: in vivo, mouse, i.v. tail vein, pH 7-7.5, survival after 7 days
recorded.endpoint: LD50 at 168 h (µmol/kg)
State just the number; it will be interpreted in µmol/kg.

Worked set:
# molecule, LD50 at 168 h, µmol/kg
records = [
    ("CC1(C)CC(NC(=O)CCC(=O)O)CC(C)(C)N1[O] [Compound 1, reference compound]", 10000),
    ("CC1(C)C=C(C(=O)NC(CO)C(O)CO)C(C)(C)N1[O] (centres unmarked)", 20000),
    ("CC1(C)CC(C(=O)NC(CO)C(O)CO)C(C)(C)N1[O] (centres unmarked)", 25000),
    ("CC1(C)C=C(C(=O)NCC(O)CO)C(C)(C)N1[O] (centres unmarked)", 15000),
]

Pending molecule:
Need LD50 at 168 h, item CC1(C)CC(C(=O)O)C(C)(C)N1[O] (centres unmarked) [Compound 2, reference compound]
10000
